The origin of these recorded values is patent US20220306762A1.

As shown below, each of these binders has a reported ELISA 1 ug/ml value.
biological target: T1, His-tagged human CD38 (ACRO Biosystems cat #CD8-H5224) (human, UniProt P28907 43-300); test: ELISA, coated His-CD38
T1 construct: bought recombinant protein with His tag
Lab note: write the figure by itself, no unit.

Asked: Identify the reported ELISA 1 ug/ml for the following entry. 40769p1.1.G5 (scFv, V domains shown, tested as scFv-Fc supernatant) VH: EVQLLESGGGFVQPGGSLRLSCAASGFNFNNAWMNWVRQAPGKGLEWVGIINGDGTNTYYADSVKGRFTISRDNSKNTLYLQMSSLRAEDTAIYYCARDNKLNDYYYAMDVWGQGTTVTV VL: QSVLTQPSSASGTPGQRVTISCSGGSSNIHANYVYWYQQLPGTAPKLLIYRNSQRPSGVPDRFSGSKSGTSASLAISGLQSEDEADYYCGTWDNILNVWVFGGGTKLTVL
Given back: 1.72

With those in mind, consider the next binder.
Asked: Identify the reported ELISA 1 ug/ml for the following entry. 40596p1.B1 (scFv, V domains shown, tested as scFv-Fc supernatant) VH: EVQLLESGGGLVEPGGSLRLSCAASGFDFSTYAMTWVRQAPGKGLEWVAGNGWSGSFIYYADSVKGRFTISRDNSKNTLYLQMNSLRAEDTAVYYCTRNPGFGEMDVWGQGTTVTVSS VL: EIVLTQSPGTLRLSPGERATLSCKASQTVGTTLAWYQQKPGQAPRLLIYGASTRATGIPDRFSGSGSGTEFTLTISSLQSEDFADYYCQQYKSWPPLTFGGGTKVEIK
Given back: 1.79
